All values here come from ChEMBL document CHEMBL4513216.

# System: Plasmodium berghei
# assay.details: Screen against P. berghei liver stage (PbLuc), transformed with Luciferase, at 10uM
# Type: functional, HepG2
# particulars: tested at 10 uM
About 8,600 (12%) of roughly 69,000 compounds showed an effect of 50% or more. The entries come from a sample that favours strong results as a whole.
Binned INHIBITION; ranges: I (below 20%), II (20% to below 40%), III (40% or more)

Solved entries:
compound: CC(C)N1CCCn2c(nc(CNC(=O)c3nccn3C)cc2=O)C1
label: III
//
compound: COc1ccc(-c2ccc(C(=O)N3CCOCC3CC(=O)O)o2)cc1 (stereo not drawn)
label: I
//
compound: CCCN1CCCn2c(nc(CNC(=O)c3nccn3C)cc2=O)C1
label: III
//
compound: CCOCCCC(=O)NCc1cn2cc(Br)ccc2n1
label: I
//
compound: CC(C)N1CCc2c(CNC(=O)c3nccn3C)cncc2C1
label: II
//
compound: O=C(c1ccno1)N1CC[C@@H]2O[C@@H](COCCN3CCCC3)CC[C@@H]21
label: II
//
compound: CCCC(C)C(=O)NCc1cn2cc(Br)ccc2n1 (stereo not drawn)
label: I
//
compound: O=C(c1ccco1)N1CC[C@@H]2O[C@@H](COCCN3CCCC3)CC[C@@H]21
label: III
//
compound: CC(=O)c1ccc(C(=O)NCc2cccnc2N2CCCC(O)C2)s1 (stereo not drawn)
label: III
//
compound: O=C([C@@H](O)Cc1ccccc1)N1CCCn2cncc2C1
label: I

*Q* Kindly identify the class of O=C(c1ccco1)N1CC[C@@H]2O[C@H](COCCN3CCCC3)CC[C@@H]21 .
*A* II

*Q* Kindly identify the class of Cc1oncc1C(=O)NCc1cc(=O)n2c(n1)CN(C(C)C)CCC2 .
*A* II

*Q* Kindly identify the class of CCOCCOC(C)C(=O)NCc1ccc(N2CCCCC2)cc1 (stereo not drawn) .
*A* II

*Q* Kindly identify the class of CC(c1cccc(S(N)(=O)=O)c1)N(C)CCCOc1ccccc1 (stereo not drawn) .
*A* II

*Q* Kindly identify the class of OCCO[C@H]1C[C@@H](O)C12CCN(Cc1nc(C(F)(F)F)no1)CC2 .
*A* I

* * *

# System: Plasmodium berghei
# assay.details: Screen against P. berghei liver stage (PbLuc), transformed with Luciferase, at 10uM
# Type: functional, HepG2
# particulars: tested at 10 uM
About 8,600 (12%) of roughly 69,000 compounds showed an effect of 50% or more. This is one part of a sample in which strong results are shown more often than they occur.
measured.attribute: INHIBITION (%)
Note: unit % is implicit; provide only the numeric part.

compound: Cc1cnn(CC2CCCCN2Cc2c(C)noc2C)c1 (stereo unspecified)
INHIBITION / %: 26.09
//
compound: CC(=O)NCc1ccc(C(=O)N2CCCC2c2cnn(C)c2)s1 (stereo unspecified)
INHIBITION / %: -25.9

*Q* Field request: INHIBITION | item: Cc1ccc(OC2(C(=O)O)CCN(C(=O)CCc3ccco3)CC2)cn1
*A* 34.4

*Q* Field request: INHIBITION | item: Cc1noc(C)c1CN1C(=O)[C@@H]2CC[C@H]1CN(Cc1ccc(Cl)cc1)C2
*A* -48.1

*Q* Field request: INHIBITION | item: O=C(NCCCn1cccn1)C1COCC(=O)N1Cc1ccccc1 (stereo unspecified)
*A* 49

*Q* Field request: INHIBITION | item: Cc1cc(C(=O)N2CCO[C@H]3[C@H](OCCN(C)C)CC[C@@H]32)c(C)[nH]1
*A* 24.3
